Quick list: GI50 per entry.
- test details: Antiproliferative activity against human IMR32 cells assessed as growth inhibition after 48 hrs by SRB assay
- Assay type: functional
- stated conditions: IMR-32, 48 h, read-out: pGI50 (converted)
Form entry: value (µM) — number only.

The following compounds have reported results that may help.
Challenge: Any idea what its GI50 is? The compound is COc1cc(OC)c(-c2nc3ccccc3c(=O)n2C/C=C/c2ccc(-c3cnc4ccccc4n3)cc2)c(OC)c1
Response given: 0.771

Challenge: What does the record list as GI50 for COc1ccc(OC)c(-c2nc3ccccc3c(=O)n2C/C=C/c2ccc(-c3cnc4ccccc4n3)cc2)c1 ?
Response given: 0.282

Challenge: # input compound: O=c1c2ccccc2nc(-c2ccc(F)cc2)n1C/C=C/c1ccc(-c2cnc3ccccc3n2)cc1 ; wanted: its GI50
Response given: 65

Attention now shifts to the item below.
Challenge: Dear colleague, I am looking for the recorded GI50 of the following compound: COc1ccc(-c2nc3ccccc3c(=O)n2C/C=C/c2ccc(-c3cnc4ccccc4n3)cc2)c(OC)c1
Response given: 6.31

---

- test details: Antiproliferative activity against human IMR32 cells assessed as growth inhibition after 48 hrs by SRB assay
- Format: functional
- stated conditions: IMR-32, 48 h, read-out: pGI50 (converted)
readout label: GI50 (nM)
Unit nM implied. Number only.

Challenge: Consider the compound shown here: COc1cccc2c1C(=O)c1c(O)c3c(c(O)c1C2=O)C[C@@](O)(C(=O)CO)C[C@@H]3O[C@H]1C[C@H](N)[C@H](O)[C@H](C)O1 [DOXORUBICIN] What is its recorded GI50?
Response given: 23

Challenge: // GI50 lookup, key: CCOc1ccc(-c2nc3ccccc3c(=O)n2C/C=C/c2ccc(-c3cnc4ccccc4n3)cc2)cc1
Response given: 471

Challenge: Looking for the measured GI50 of Cc1nc2ccccc2c(=O)n1CCCc1ccc(-c2cnc3ccccc3n2)cc1 , can you help?
Response given: 220

Moving on to another compound below.
Challenge: Entry Cc1ccc(-c2nc3ccccc3c(=O)n2C/C=C/c2ccc(-c3cnc4ccccc4n3)cc2)cc1 has what GI50?
Response given: 2200

---

- test details: Antiproliferative activity against human IMR32 cells assessed as growth inhibition after 48 hrs by SRB assay
- Type: functional
- stated conditions: IMR-32, 48 h, read-out: pGI50 (converted)
readout label: GI50 (nM)
A number alone suffices; assume nM.

Worked examples, 6 compounds total:
Challenge: Return reported GI50; argument: COc1cccc(-c2nc3ccccc3c(=O)n2C/C=C/c2ccc(-c3cnc4ccccc4n3)cc2)c1
Response given: 321

Challenge: Fill blank: measured GI50 of the compound O=c1c2ccccc2nc(-c2ccc(Cl)cc2Cl)n1C/C=C/c1ccc(-c2cnc3ccccc3n2)cc1 is ____.
Response given: 2600

Challenge: Name the recorded GI50 for COc1ccc(-c2nc3ccccc3c(=O)n2C/C=C/c2ccc(-c3cnc4ccccc4n3)cc2)cc1 .
Response given: 2810

Challenge: What measured GI50 goes with CC(=O)O[C@H]1C(=O)[C@@]2(C)[C@H]([C@H](OC(=O)c3ccccc3)[C@]3(O)C[C@H](OC(=O)[C@H](O)[C@@H](NC(=O)c4ccccc4)c4ccccc4)C(C)=C1C3(C)C)[C@]1(OC(C)=O)CO[C@@H]1C[C@@H]2O ?
Response given: 75.2

Challenge: // returns reported GI50 for input O=c1c2ccccc2nc(-c2ccccc2)n1C/C=C/c1ccc(-c2cnc3ccccc3n2)cc1
Response given: 1010

Challenge: If you can, please state the reported GI50 value of O=c1c2ccccc2nc(-c2ccc(C(F)(F)F)cc2)n1C/C=C/c1ccc(-c2cnc3ccccc3n2)cc1 .
Response given: 5310

From here, focus on the item given below.
Challenge: Fill blank: measured GI50 of the compound COc1ccc(-c2nc3ccccc3c(=O)n2C/C=C/c2ccc(-c3cnc4ccccc4n3)cc2)c(F)c1 is ____.
Response given: 1200

---

- Test system: MDA-MB-231
- test details: Antiproliferative activity against human MDA-MB-231 cells assessed as growth inhibition after 48 hrs by SRB assay
- Assay type: functional
- stated conditions: MDA-MB-231, 48 h, read-out: GI50
readout label: GI50 (nM)
Record the value in nM, omitting the unit from your answer.

Solved cases below.
Challenge: GET /values?readout=GI50&item= CC(=O)O[C@H]1C(=O)[C@@]2(C)[C@H]([C@H](OC(=O)c3ccccc3)[C@]3(O)C[C@H](OC(=O)[C@H](O)[C@@H](NC(=O)c4ccccc4)c4ccccc4)C(C)=C1C3(C)C)[C@]1(OC(C)=O)CO[C@@H]1C[C@@H]2O
Response given: 91

Challenge: May I ask what GI50 has been recorded for O=c1c2ccccc2nc(-c2ccc(F)cc2)n1C/C=C/c1ccc(-c2cnc3ccccc3n2)cc1 ?
Response given: 1700

Challenge: I am curious: what GI50 value has been reported for O=c1c2ccccc2nc(-c2ccc(Cl)cc2Cl)n1C/C=C/c1ccc(-c2cnc3ccccc3n2)cc1 ?
Response given: 400

Challenge: Using the record for O=c1c2ccccc2nc(-c2ccc(C(F)(F)F)cc2)n1C/C=C/c1ccc(-c2cnc3ccccc3n2)cc1 , report its GI50.
Response given: 1800

Challenge: Name the reported GI50 value associated with the compound COc1ccc(-c2nc3ccccc3c(=O)n2C/C=C/c2ccc(-c3cnc4ccccc4n3)cc2)cc1
Response given: 640

More entries:
Challenge: Fill in: GI50 of Cc1ccc(-c2nc3ccccc3c(=O)n2C/C=C/c2ccc(-c3cnc4ccccc4n3)cc2)cc1 is ___
Response given: 1240

---

- test details: Antiproliferative activity against human IMR32 cells assessed as growth inhibition after 48 hrs by SRB assay
- Type: functional
- stated conditions: IMR-32, 48 h, read-out: GI50
Some molecules, each annotated with its measured GI50.
Response body: numeric value in nM, unit text excluded.

Challenge: Please give the measured GI50 for this molecule: O=c1c2ccccc2nc(-c2ccc(F)cc2)n1C/C=C/c1ccc(-c2cnc3ccccc3n2)cc1
Response given: 65000

Challenge: Please look up its GI50: COc1ccc(-c2nc3ccccc3c(=O)n2C/C=C/c2ccc(-c3cnc4ccccc4n3)cc2)c(F)c1
Response given: 1200

Challenge: Field request: GI50 | item: O=c1c2ccccc2nc(-c2ccc(C(F)(F)F)cc2)n1C/C=C/c1ccc(-c2cnc3ccccc3n2)cc1
Response given: 5300

New cases:
Challenge: Give its GI50 value. Item: O=c1c2ccccc2nc(-c2ccccc2)n1C/C=C/c1ccc(-c2cnc3ccccc3n2)cc1
Response given: 1010

Challenge: Name the recorded GI50 for COc1ccc(-c2nc3ccccc3c(=O)n2C/C=C/c2ccc(-c3cnc4ccccc4n3)cc2)cc1 .
Response given: 2800

Challenge: Can you share its GI50? I mean this molecule: Cc1ccc(-c2nc3ccccc3c(=O)n2C/C=C/c2ccc(-c3cnc4ccccc4n3)cc2)cc1
Response given: 2200

Challenge: // query GI50 value for entry COc1cc(OC)c(-c2nc3ccccc3c(=O)n2C/C=C/c2ccc(-c3cnc4ccccc4n3)cc2)c(OC)c1
Response given: 770

Challenge: // query GI50 value for entry COc1ccc(OC)c(-c2nc3ccccc3c(=O)n2C/C=C/c2ccc(-c3cnc4ccccc4n3)cc2)c1
Response given: 280

Challenge: Returns the measured GI50 for the input molecule. Input: COc1cccc2c1C(=O)c1c(O)c3c(c(O)c1C2=O)C[C@@](O)(C(=O)CO)C[C@@H]3O[C@H]1C[C@H](N)[C@H](O)[C@H](C)O1
Response given: 23

---

- test details: Antiproliferative activity against human IMR32 cells assessed as growth inhibition after 48 hrs by SRB assay
- Type: functional
- stated conditions: IMR-32, 48 h, read-out: GI50
readout label: GI50 (nM)
Give your result in nM as a bare value.

Challenge: Which GI50 is reported for this molecule? CCOc1ccc(-c2nc3ccccc3c(=O)n2C/C=C/c2ccc(-c3cnc4ccccc4n3)cc2)cc1
Response given: 470

Challenge: State the recorded GI50 for this entry: Cc1nc2ccccc2c(=O)n1CCCc1ccc(-c2cnc3ccccc3n2)cc1
Response given: 220

Challenge: What measured GI50 goes with COc1ccc(-c2nc3ccccc3c(=O)n2C/C=C/c2ccc(-c3cnc4ccccc4n3)cc2)c(OC)c1 ?
Response given: 6300

Challenge: Any idea what its GI50 is? The molecule is O=c1c2ccccc2nc(-c2ccc(Cl)cc2Cl)n1C/C=C/c1ccc(-c2cnc3ccccc3n2)cc1
Response given: 2600

Challenge: Quick check: GI50 of COc1cccc(-c2nc3ccccc3c(=O)n2C/C=C/c2ccc(-c3cnc4ccccc4n3)cc2)c1 ?
Response given: 320

Here is another molecule to look at.
Challenge: Look up GI50: CC(=O)O[C@H]1C(=O)[C@@]2(C)[C@H]([C@H](OC(=O)c3ccccc3)[C@]3(O)C[C@H](OC(=O)[C@H](O)[C@@H](NC(=O)c4ccccc4)c4ccccc4)C(C)=C1C3(C)C)[C@]1(OC(C)=O)CO[C@@H]1C[C@@H]2O
Response given: 75
